Assay: p53 small molecule agonists, cell-based qHTS assay with rat liver microsomes: qHTS cell viability counter screen (AID 1963580); also: nearly all actives have a fitted effect of over 45% in size
Settings: p53RE-bla HCT-116 + rat microsomes, ATP viability, 16 h; series mostly up to 66 µM
Records with an inconclusive call do not appear. The source made the active and inactive calls. Calls follow the shape of the full dose curve.
Mark one answer only. Choices: active, inactive

Illustrative cases are given below, each with its answer.
Fill in: this test's call for CCCC/C=C/C=C\C=O is ___ inactive

// param item: CCCCCCCCCCCCCCCS(=O)(=O)Oc1ccccc1 ; yields the recorded call inactive

Per the records of this test, what outcome belongs to CCCCCCCCCCCCCCCCCCNC(=O)OC1CCN(C(=O)OC[C@H](COC(=O)N(Cc2cccc[n+]2CC)C(=O)c2ccccc2OC)OC)CC1 ? inactive

Could you check what this test reported for CC1(C)O[C@@H]2C[C@H]3[C@@H]4C[C@H](F)C5=CC(=O)C=C[C@]5(C)[C@H]4[C@@H](O)C[C@]3(C)[C@]2(C(=O)CO)O1 ? inactive

Called result for CCCOC(=O)CCCCC(=O)OCCC inactive

Turning now to a further record.
// param item: Oc1cc2ccccc2c2ccccc12 ; yields the recorded call active
